src = ChEMBL document CHEMBL1201862

- TEST METHOD NOTES: growth suppression of PTEN-null colon cells, dose response, cell-based, HCT116 PTEN knockout (AID 1047);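 also: HCT116 colon tumor cells with PTEN knocked out; cells exposed to compound for 60 hours before readout; potency for loss of cell viability measured by luminescence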
- Type: functional
Active and inactive are the calls of the source. No rule for the calls is given here.
ASSAY READOUT: EC50

// solved cases for EC50 follow
SMILES STR	ASSAY READOUT	VALUE OBSERVED
CN(C)CCCN(C(=O)c1ccc2c(c1)CCCC2)c1nc2c(F)cccc2s1	EC50	27 µM (active)
CCCCCCCCNC(=O)c1cccnc1SCC(=O)Nc1ccc(OC)cc1OC	EC50	12.3 µM (active)
Cn1c(=O)c2c(nc(N/N=C/c3cccs3)n2Cc2ccccc2)n(C)c1=O	EC50	56.2 µM (active)
COc1ccc(-c2c(C#N)c(N)nc3c2CCc2ccccc2-3)cc1OC	EC50	5.19 µM (active)

Would you kindly look at the next entry?
For the compound shown here, Cc1c(C(=O)NCCC2=CCCCC2)oc2ccc(S(=O)(=O)N3CCOCC3)cc12 , give the reported EC50.
19.2 µM (active)
